Source of measurements: ChEMBL document CHEMBL1201862

# Tested on: OVCAR-5
# protocol_notes: NCI tumour cell line growth inhibition, 48 h
Calls of active or inactive are those of the source. Cut-off read from the data, not from the text of the source: active = GI50 up to about 1.1 µM and inactive = higher.
measurement_kind: GI50

Noted for CCC1=NC(C(F)(F)F)(C(F)(F)F)N=C(N2CCOCC2)O1 : its GI50 reads > 100 µM (inactive)

Noted for CC(=O)N1N=C(c2ccccc2Nc2ccccc2C2=NN(C(C)=O)C(c3ccccc3)O2)OC1c1ccccc1 (stereo not drawn) : its GI50 reads > 100 µM (inactive)

Noted for CC(=O)O[C@]1(C)OC(=O)[C@@H](CC(C)C)N1[N+](=O)[O-] : its GI50 reads > 100 µM (inactive)

Noted for CC(CN(C)C)C(O)(c1ccccc1)c1ccccc1 (stereo not drawn) : its GI50 reads > 100 µM (inactive)

Noted for C/C=C/C=C/C1=NN(c2cccc(S(=O)(=O)O)c2)C2(C1)C(Cl)C(=O)N2c1nc2ccccc2s1 (stereo not drawn) : its GI50 reads 17.4 µM (inactive)

Noted for CC(=O)OCCOCNC(=S)N/N=C/c1cc(Br)cs1 : its GI50 reads > 100 µM (inactive)

Noted for C=CC(C)(C)n1cc(C2=C(O)C(=O)C(c3c(CC=C(C)C)[nH]c4ccccc34)=C(O)C2=O)c2ccccc21 : its GI50 reads 2.89 µM (inactive)

Noted for CCOC(=O)c1c[nH]c2cc3c(cc2c1=O)CCS3 : its GI50 reads > 100 µM (inactive)

Noted for O=C(Cn1c2c(c3ccccc31)CCCC2)N1CCCCC1 : its GI50 reads > 100 µM (inactive)

Noted for N#CCCC1C(C#N)C2(Cl)CC1(Cl)C(Cl)=C2Cl (stereo not drawn) : its GI50 reads > 10 µM (inactive)

Noted for CCCCCCCCCCCCC/C=C1\C[C@H](O)COC1=O : its GI50 reads 19.2 µM (inactive)

Noted for CC(C)(C)OC(=O)NCC(=O)N1CCN(C(=O)CNC(=O)OC(C)(C)C)CC1 : its GI50 reads > 100 µM (inactive)

Noted for Cc1cn(C2CC(O)C(Cn3nncc3Cn3ncc(=O)[nH]c3=O)O2)c(=O)[nH]c1=O (stereo not drawn) : its GI50 reads > 100 µM (inactive)

Noted for Nc1cc(N)c(/N=N/c2cccc3c(S(=O)(=O)O)cccc23)cc1/N=N/c1cc([N+](=O)[O-])ccc1O : its GI50 reads 23.3 µM (inactive)

Noted for Cc1ccc(Nc2nc(C)c(C(/C=C/c3ccc4c(c3)OCO4)=N/Nc3ccc([N+](=O)[O-])cc3[N+](=O)[O-])s2)c([N+](=O)[O-])c1 : its GI50 reads 43.9 µM (inactive)

Noted for CCOC(=O)c1cc2nc3ccccc3c(=O)n2c2ccccc12 : its GI50 reads > 10 µM (inactive)

Noted for CC1=CCC[C@@]2(C)C(CC[C@@H]2C(C)/C=C/C(C)C)c2ccc(cc2C(=O)O)C[C@@H](O)CC1 (stereo partly drawn) : its GI50 reads 16.4 µM (inactive)

Noted for [O-][S+](Nc1ccccc1)c1ccc(-c2ccccc2)cc1 (stereo not drawn) : its GI50 reads > 100 µM (inactive)

Noted for CC(=O)NNc1nc(C)c(C(=O)NNC(=O)C(=O)Nc2ccc(Cl)c([N+](=O)[O-])c2)s1 : its GI50 reads > 100 µM (inactive)

Noted for C=C1C(=O)OC2/C=C(\C)C(=O)CC3OC(C)(C)OC3(C)CC(OC(=O)/C(C)=C/C)C12 (stereo not drawn) : its GI50 reads 20.4 µM (inactive)

Noted for CN(C)CCN1C(=O)c2cccc3cc(N)cc(c23)C1=O [AMONAFIDE] : its GI50 reads 4.83 µM (inactive)

Noted for COc1cc(C2c3cc4c(cc3C(O)C3CCC(=O)N23)OCO4)cc(OC)c1OC (stereo not drawn) : its GI50 reads 43.2 µM (inactive)

Noted for C[C@]12CCC3[C@@H](CC[C@@H]4c5nonc5CC[C@]34C)C1CCC(=O)N2 (stereo partly drawn) : its GI50 reads > 100 µM (inactive)

Noted for CC(C)(C)NCC(COc1ccc([N+](=O)[O-])cc1)OP(c1ccccc1)c1ccccc1 (stereo not drawn) : its GI50 reads 82.4 µM (inactive)

Noted for O=c1nc2sc3ccc4ccccc4c3n2nc1-c1ccccc1 : its GI50 reads > 100 µM (inactive)

Noted for CC1(C)C2CCC1(C)C(N/C(Sc1ccccc1)=C(/C(Cl)=C(Cl)Cl)[N+](=O)[O-])C2 (stereo not drawn) : its GI50 reads 13.9 µM (inactive)

Noted for CO[C@@H]1C[C@H]2[C@@H]3CC[C@H]([C@H](C)COC(C)=O)[C@@]3(C)CC[C@@H]2[C@@]2(C)CC[C@H]3C[C@]312 : its GI50 reads > 100 µM (inactive)

Noted for CCC1(CC)SCc2nc3ccccc3n21 : its GI50 reads 45.6 µM (inactive)

----------
# System: CAKI-1
# protocol_notes: NCI tumour cell line growth inhibition, 48 h
The source made the active and inactive calls. No stated cut-off is given here; in the data, active = GI50 up to about 1.1 µM and inactive = higher.
measurement_kind: GI50

Measured on CAKI-1, COc1ccc2c3c1O[C@H](c1ccc(O)cc1)[C@H]3[N+](C)(C)CC2 has a documented GI50 of > 100 µM (inactive)

Measured on CAKI-1, COC(=O)CCc1c(Cc2ccc[nH]2)[nH]c(C(=O)OCc2ccccc2)c1C has a documented GI50 of 25.1 µM (inactive)

Measured on CAKI-1, N=c1oc2ccccc2cc1C(=O)Nc1nccs1 has a documented GI50 of 13.4 µM (inactive)

Measured on CAKI-1, OC(c1ccc(F)cc1)C(F)(F)c1nc(-c2ccccc2)no1 (configuration not stated) has a documented GI50 of 27 µM (inactive)

Measured on CAKI-1, O=C(O)c1nc2ccccc2nc1Nc1ccc(Cl)c(Cl)c1 has a documented GI50 of 33 µM (inactive)

Measured on CAKI-1, S=C1ON=C(c2ccccc2)/C1=C/Nc1ccccc1 has a documented GI50 of > 100 µM (inactive)

Measured on CAKI-1, CCCCc1ccc(Nc2nc3c(ncn3COCCBr)c(=O)[nH]2)cc1 has a documented GI50 of > 100 µM (inactive)

Measured on CAKI-1, COC(=O)/C=C1/SC(/C(=C(/[O-])OC)[n+]2ccc3ccccc3c2)=NC1=O has a documented GI50 of > 100 µM (inactive)

Measured on CAKI-1, C#CCOC(=O)C(N)C(C)O (configuration not stated) has a documented GI50 of > 100 µM (inactive)

Measured on CAKI-1, CC(CO)CCNc1ncnc2c1ncn2CCC#N (configuration not stated) has a documented GI50 of > 100 µM (inactive)

Measured on CAKI-1, CC(=O)N(C)c1ccc2c(ccc[n+]2[O-])c1[N+](=O)[O-] has a documented GI50 of > 100 µM (inactive)

Measured on CAKI-1, Clc1ccccc1C(c1ccccc1)(c1ccccc1)n1ccnc1 has a documented GI50 of 17.4 µM (inactive)

Measured on CAKI-1, C=C(C)C(O)C(O)c1c(OC)ccc2ccc(=O)oc12 (configuration not stated) has a documented GI50 of > 100 µM (inactive)

Measured on CAKI-1, Cc1ccc(S(=O)(=O)N/N=C(\C(=O)Nc2cccc([N+](=O)[O-])c2)c2nc3ccc([N+](=O)[O-])cc3nc2O)cc1 has a documented GI50 of 23.2 µM (inactive)

Measured on CAKI-1, Cc1[nH]c2ccccc2c1-c1n[nH]c(=O)c2ccccc12 has a documented GI50 of 13.4 µM (inactive)

Measured on CAKI-1, CN(C)S(=O)(=O)Nc1nnc(S(N)(=O)=O)s1 has a documented GI50 of > 100 µM (inactive)

Measured on CAKI-1, COc1ccc2nc3cc(Cl)ccc3c(NCCCN3CCN(CCCNc4ccc5nnn6c7ccccc7c(=O)c4c56)CC3)c2c1 has a documented GI50 of > 5.62 µM (inactive)

Measured on CAKI-1, CCCN(CCc1ccc(-c2ccccc2)cc1)CCc1ccc2nn[nH]c2c1 has a documented GI50 of 12.6 µM (inactive)

Measured on CAKI-1, O=C1c2ccccc2C(=O)N1CCCSc1ccccc1 has a documented GI50 of 93.1 µM (inactive)

Measured on CAKI-1, CSc1nc2c(nc(N)n2C2OC(COC(C)=O)C(OC(C)=O)C(OC(C)=O)C2OC(C)=O)c(=O)n1C (configuration not stated) has a documented GI50 of > 100 µM (inactive)

Measured on CAKI-1, C#CCOC(=O)c1ccc(OC(C)=O)cc1 has a documented GI50 of > 100 µM (inactive)

Measured on CAKI-1, Nc1ccc(Cc2ccc(N)c(C(=O)O)c2)cc1C(=O)O has a documented GI50 of > 100 µM (inactive)

----------
Task for the reader: assign each of the following molecules its reported GI50.
# Tested on: DMS-273
# protocol_notes: NCI tumour cell line growth inhibition, 48 h
Calls of active or inactive are those of the source. Rule as the data show it: active = GI50 up to about 1.1 µM and inactive = higher.

Measured on DMS-273, CCCC(O)[C@@H](O)c1ccc2c(c1O)C(=O)c1c(OC)cccc1C2=O (some centres not stated) has a documented GI50 of 35.5 µM (inactive)

Measured on DMS-273, CC(=O)OC1COC(n2c(=S)n(-c3ccc(C)cc3)c(=O)c3ccccc32)C(OC(C)=O)C1OC(C)=O (configuration not stated) has a documented GI50 of > 100 µM (inactive)

Measured on DMS-273, COC(=O)C1=C(C(=O)OC)C2C=CC1C1C(Cl)=C(Cl)C21 (configuration not stated) has a documented GI50 of > 100 µM (inactive)

Measured on DMS-273, CCCCCCCCCCCCC/C=C1\C[C@H](O)COC1=O has a documented GI50 of 14.4 µM (inactive)

Measured on DMS-273, CC(=O)O[C@]1(C)OC(=O)[C@@H](CC(C)C)N1[N+](=O)[O-] has a documented GI50 of > 100 µM (inactive)

Measured on DMS-273, CC1=C(/C(C)=N/NC(=O)C(N)=O)Sc2ccccc2N1 has a documented GI50 of > 100 µM (inactive)

Measured on DMS-273, COc1cc(/C=C2/C(=O)N(C(=O)OCC(C)C)C(Cc3cc(OC)c(OC)c(C)c3OC)C(=O)N2Cc2ccccc2)c(OC)c(C)c1OC (configuration not stated) has a documented GI50 of > 100 µM (inactive)
